- Species: Bos taurus
- ASSAY PROTOCOL: Inhibition of bovine kidney N-acetyl-beta-D-glucosaminidase at 1 mg/ml after 10 to 20 mins
Active and inactive are the calls of the source. The calls are words filed in the database; no cut-off is given here.
MEASUREMENT LABEL: inhibition

Use these answered entries as a reference point.
| COMPOUND | inhibition |
| --- | --- |
| CCCCN1C[C@@H](CO)O[C@H](OC)[C@H](O)C1 | 32% |
| CCCCCCCCN1C[C@@H](CO)O[C@H](OC)C1 | inactive |
| COC(=O)C(C)N1C[C@@H](CO)O[C@H](OC)C1 (some centres not stated) | inactive |
| CO[C@@H]1CN(C[C@H]2O[C@H](OC)[C@H](O)[C@@H](O)[C@@H]2O)C[C@@H](CO)O1 | 11% |
| COC(=O)CN1C[C@@H](CO)O[C@H](OC)C1 | inactive |

Name the reported inhibition value associated with the compound COC(=O)C(C)N1C[C@@H](CO)O[C@H](OC)[C@H](O)C1 (some centres not stated)
inactive

Name the reported inhibition value associated with the compound "CCCN1C[C@@H](CO)O[C@H](OC)C1"
inactive
